Molecular target: Hhat (Homo sapiens)
Sequence (Q5VTY9 whole entry): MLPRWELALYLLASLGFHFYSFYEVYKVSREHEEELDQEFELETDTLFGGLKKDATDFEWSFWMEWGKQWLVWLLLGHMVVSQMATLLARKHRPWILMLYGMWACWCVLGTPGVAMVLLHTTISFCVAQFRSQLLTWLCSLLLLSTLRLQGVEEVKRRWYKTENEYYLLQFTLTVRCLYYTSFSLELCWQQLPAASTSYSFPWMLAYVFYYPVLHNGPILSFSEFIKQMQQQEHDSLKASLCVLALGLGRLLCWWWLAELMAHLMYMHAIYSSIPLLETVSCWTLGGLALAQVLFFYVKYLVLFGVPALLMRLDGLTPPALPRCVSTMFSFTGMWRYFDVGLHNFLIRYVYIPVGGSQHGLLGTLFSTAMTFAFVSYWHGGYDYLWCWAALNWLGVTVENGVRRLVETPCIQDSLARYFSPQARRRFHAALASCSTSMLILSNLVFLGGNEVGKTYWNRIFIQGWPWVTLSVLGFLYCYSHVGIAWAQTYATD
quantityName: pKi
Please report pKi as the negative decimal logarithm of the molar concentration, giving only the number.

Ask | Lab request: please report pKi under test system Hhat (Homo sapiens) for CCC(C)CNCC(=O)N1CCc2sccc2C1COc1cccc(C)c1 (stereo not shown) [RU-SKI 43]
Reply | 5.16

* * *

Assay: Half-life in mouse plasma after IV administration
Assay type: in vivo
quantityName: half-life (min)
Write it as a number; the unit min goes unstated.

Ask | Fill blank: measured half-life of the molecule CCC(C)CNCC(=O)N1CCc2sccc2C1COc1cccc(C)c1 (stereo not shown) [RU-SKI 43] is ____.
Reply | 17
